target.under.test: membrane-bound tissue factor (TF) on cells (human, UniProt P13726 33-295)
protocol.summary: cell-based or functional assay
Each record is given met if its reported IC50 of cell killing, A431 cells, ADC killing assay is strictly below 0.02 mg/L. Records at or above 0.02 mg/L are given not met.

• HuMab-TF-098-mcMMAF (antibody, IgG1, V domains shown, mcMMAF drug-linker alkylated to cysteines of the reduced antibody (positions not given), DAR 4.0 by RP-HPLC, 3.9 by HIC) VH: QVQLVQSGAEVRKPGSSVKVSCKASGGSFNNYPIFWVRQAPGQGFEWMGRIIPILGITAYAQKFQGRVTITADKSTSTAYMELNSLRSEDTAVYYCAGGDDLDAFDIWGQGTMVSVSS VL: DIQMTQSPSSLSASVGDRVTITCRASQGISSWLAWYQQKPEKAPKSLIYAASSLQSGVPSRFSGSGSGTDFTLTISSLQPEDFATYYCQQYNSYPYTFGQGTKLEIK = met
• HuMab-TF-111-mcMMAF (antibody, IgG1, V domains shown, mcMMAF drug-linker alkylated to cysteines of the reduced antibody (positions not given), DAR 4.1 by RP-HPLC, 4.2 by HIC) VH: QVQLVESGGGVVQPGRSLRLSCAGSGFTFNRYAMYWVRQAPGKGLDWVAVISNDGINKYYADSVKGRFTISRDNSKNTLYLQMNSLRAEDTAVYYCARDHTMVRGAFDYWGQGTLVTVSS VL: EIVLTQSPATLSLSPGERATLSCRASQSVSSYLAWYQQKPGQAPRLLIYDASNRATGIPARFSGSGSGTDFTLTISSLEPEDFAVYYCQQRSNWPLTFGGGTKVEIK = not met
• HuMab-TF-011-mcMMAF (antibody, IgG1, V domains shown, mcMMAF drug-linker alkylated to cysteines of the reduced antibody (positions not given), DAR 3.9 by RP-HPLC, 4.1 by HIC) VH: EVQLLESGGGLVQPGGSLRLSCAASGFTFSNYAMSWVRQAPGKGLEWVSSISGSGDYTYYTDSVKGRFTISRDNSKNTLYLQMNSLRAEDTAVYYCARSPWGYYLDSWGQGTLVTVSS VL: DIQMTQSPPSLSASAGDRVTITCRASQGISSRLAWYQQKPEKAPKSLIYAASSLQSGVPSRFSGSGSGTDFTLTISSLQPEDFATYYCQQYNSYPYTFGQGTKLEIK = not met
• HuMab-TF-011-vcMMAE (antibody, IgG1, V domains shown, vcMMAE drug-linker alkylated to cysteines of the reduced antibody (positions not given), DAR 3.9 by RP-HPLC, 3.9 by HIC) VH: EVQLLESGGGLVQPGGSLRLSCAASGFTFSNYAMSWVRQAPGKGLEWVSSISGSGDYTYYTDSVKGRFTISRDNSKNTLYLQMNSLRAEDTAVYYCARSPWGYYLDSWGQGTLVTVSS VL: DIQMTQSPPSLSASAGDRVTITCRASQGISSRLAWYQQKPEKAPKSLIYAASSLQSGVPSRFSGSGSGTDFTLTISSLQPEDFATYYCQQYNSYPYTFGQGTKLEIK = met
• HuMab-TF-098-vcMMAE (antibody, IgG1, V domains shown, vcMMAE drug-linker alkylated to cysteines of the reduced antibody (positions not given), DAR 3.9 by RP-HPLC, 3.7 by HIC) VH: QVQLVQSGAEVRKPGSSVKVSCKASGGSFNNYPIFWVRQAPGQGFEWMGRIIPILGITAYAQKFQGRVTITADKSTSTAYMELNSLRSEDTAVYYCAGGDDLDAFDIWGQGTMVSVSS VL: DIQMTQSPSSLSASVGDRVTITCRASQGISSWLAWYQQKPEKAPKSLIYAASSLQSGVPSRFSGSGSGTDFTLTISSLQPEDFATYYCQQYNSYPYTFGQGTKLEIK = met
• HuMab-TF-111-vcMMAE (antibody, IgG1, V domains shown, vcMMAE drug-linker alkylated to cysteines of the reduced antibody (positions not given), DAR 4.3 by RP-HPLC, 4.1 by HIC) VH: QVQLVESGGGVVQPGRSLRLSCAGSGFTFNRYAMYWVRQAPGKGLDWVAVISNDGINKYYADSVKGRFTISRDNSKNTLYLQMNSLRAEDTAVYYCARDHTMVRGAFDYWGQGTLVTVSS VL: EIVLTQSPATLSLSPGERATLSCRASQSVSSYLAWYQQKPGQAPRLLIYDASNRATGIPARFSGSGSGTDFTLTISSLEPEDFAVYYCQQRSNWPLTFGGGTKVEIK = not met
